method: molar heat capacity at constant pressure
assay.context: 30 K; 101.33 kPa; Crystal
measure.name: molar heat capacity at constant pressure (J/K/mol)

CCCCCCCCC(=O)OC [methyl nonanoate]
34.66
CCCCCCCCCCCCCCCC(=O)OC [methyl hexadecanoate]
47.98
CCCCCCCCCCCCCC(=O)OC [methyl tetradecanoate]
43.99
CCCCCCCCCCCCCCCCC(=O)OC [methyl heptadecanoate]
48.82
CCCCCCCCCCCC(=O)OC [methyl dodecanoate]
40.21
CCCCCCCCCCC(=O)OC [methyl undecanoate]
38.09
CCCCCCCCCCCCC(=O)OC [methyl tridecanoate]
41.39

* * *

method: molar heat capacity at constant pressure
assay.context: 30 K; 101.33 kPa; Crystal
measure.name: molar heat capacity at constant pressure (J/K/mol)

CCCCCCCCCC(=O)OC [methyl decanoate]
37.87

A = CCCCCCCC(=O)OC [methyl octanoate]
B = CCCCCCCCCCCCCCCCCC(=O)OC [methyl octadecanoate]
IN: Between item A and item B , which reported molar heat capacity at constant pressure is smaller? // output: label of the selected item
OUT: A
(A: 33.71 J/K/mol, B: 52.72 J/K/mol)
